TARGET: Amine oxidase [flavin-containing] A (Mus musculus)
Sequence (Q64133 whole entry): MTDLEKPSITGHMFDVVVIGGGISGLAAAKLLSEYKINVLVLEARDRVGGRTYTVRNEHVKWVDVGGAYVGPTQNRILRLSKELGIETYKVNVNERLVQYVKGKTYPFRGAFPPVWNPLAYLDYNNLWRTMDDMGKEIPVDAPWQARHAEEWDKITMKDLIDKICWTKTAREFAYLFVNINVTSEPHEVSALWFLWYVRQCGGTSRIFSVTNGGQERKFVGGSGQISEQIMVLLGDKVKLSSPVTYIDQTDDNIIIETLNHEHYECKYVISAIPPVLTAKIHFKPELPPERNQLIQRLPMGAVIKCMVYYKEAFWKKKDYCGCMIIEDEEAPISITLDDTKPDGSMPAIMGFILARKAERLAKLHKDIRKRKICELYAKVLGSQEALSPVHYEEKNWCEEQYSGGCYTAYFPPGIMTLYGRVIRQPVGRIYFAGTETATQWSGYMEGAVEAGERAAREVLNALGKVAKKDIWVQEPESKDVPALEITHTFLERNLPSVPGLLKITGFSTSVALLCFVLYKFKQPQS
pIC50: −log10 of the molar value.
pIC50 values by entry

Below, 2 molecules whose answers are already recorded.
> print(dat)
                                   molecule  result
1  CC(C)=CCc1c(-c2ccc(O)cc2O)oc2cc3c(c(O)c2c1=O)C=CC(C)(C)O3    4.10
2  C=CC(C)(C)c1c(O)cc(O)c2c(=O)c3cc(O)c(O)cc3oc12  < 3.82

Inquiry: State pIC50 (Amine oxidase [flavin-containing] A (Mus musculus)) of C=CC(C)(C)c1c(O)cc2oc3c4c(c(O)cc3c(=O)c2c1O)OC(C)(C)C=C4 .
Reply text: < 3.82

Inquiry: // output pIC50; input CC(C)=CC1Oc2cc(O)ccc2-c2oc3cc4c(c(O)c3c(=O)c21)C=CC(C)(C)O4 (centres undefined) ; system Amine oxidase [flavin-containing] A (Mus musculus)
Reply text: < 3.82
